Reported furin enzyme pIC50 values follow for various molecules
system: Furin (108-574-Tev-Flag-His) enzyme (Homo sapiens, UniProt P09958)
Construct: Furin (108-574-Tev-Flag-His) enzyme was expressed and purified from CHO cells; TEV cleavage site (C); FLAG (C); His (C); made in house; host or cells: CHO cells
Sequence (P09958 108-574): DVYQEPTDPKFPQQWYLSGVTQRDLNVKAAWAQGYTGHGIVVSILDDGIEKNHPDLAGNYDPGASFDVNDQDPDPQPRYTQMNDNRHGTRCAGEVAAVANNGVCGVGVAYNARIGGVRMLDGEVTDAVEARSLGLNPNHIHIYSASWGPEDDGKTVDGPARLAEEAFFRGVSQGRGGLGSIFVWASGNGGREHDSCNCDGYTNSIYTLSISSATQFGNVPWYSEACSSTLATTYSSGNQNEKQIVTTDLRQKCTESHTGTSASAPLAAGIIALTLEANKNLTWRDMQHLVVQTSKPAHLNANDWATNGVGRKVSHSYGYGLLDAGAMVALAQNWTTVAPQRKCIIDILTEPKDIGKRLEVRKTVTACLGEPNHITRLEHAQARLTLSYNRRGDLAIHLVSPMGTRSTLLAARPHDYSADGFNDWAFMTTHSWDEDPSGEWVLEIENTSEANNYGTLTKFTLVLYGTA
assay-notes: Furin enzyme assay
Format: biochemical
Hey, just send me the number, nothing else.

[
  {
    "molecule": "CN1C[C@@H]2C[C@H]1CN2c1ccc(Oc2cc(CN3CCC(CC(=O)O)CC3)cc(-c3cc(Cl)cc(Cl)c3)n2)nn1 [Example 357]",
    "furin enzyme pIC50": 8.5
  },
  {
    "molecule": "CN1C2CC1CN(c1ncc(Oc3cc(CN4CCC(CC(=O)O)CC4)cc(-c4cc(Cl)cc(Cl)c4)n3)cn1)C2 [Example 228]",
    "furin enzyme pIC50": 8.6
  },
  {
    "molecule": "COCCN1CCN(c2ncc(Oc3cc(CN4CCC(CC(=O)O)CC4)cc(-c4cc(Cl)cc(Cl)c4)n3)cn2)CC1 [Example 247]",
    "furin enzyme pIC50": 8.5
  },
  {
    "molecule": "CC(=O)NCC1CCN(Cc2cc(Oc3cnc(N4CCN(C[C@@H](C)O)CC4)nc3)nc(-c3cc(Cl)cc(Cl)c3)c2)CC1 [Example 302]",
    "furin enzyme pIC50": 9.6
  },
  {
    "molecule": "CN1CCN(c2ncc(Oc3cc(CN4CCC(CC(=O)O)CC4)cc(-c4cc(Cl)cc(Cl)c4)n3)cn2)CC(C)(O)C1 (stereo not shown) [Example 146]",
    "furin enzyme pIC50": 8.5
  },
  {
    "molecule": "CC(=O)NCC1CCN(Cc2cc(Oc3ccc(N4CCN(CCC(=O)O)[C@@H](C)C4)nc3)nc(-c3cc(Cl)cc(Cl)c3)c2)CC1 [Example 186]",
    "furin enzyme pIC50": 9.1
  }
]

Now for the molecule whose furin enzyme pIC50 we want.
What does the data say about its furin enzyme pIC50? Entry: CN1CCCN(c2ncc(Oc3cc(CN4CCC(CC(=O)O)CC4)cc(-c4cc(F)cc(Cl)c4)n3)cn2)CC1 [Example 374] 7.9

---

system: furin (endogenous protease) in U20S cells (Homo sapiens, UniProt P09958)
Construct: the endogenous protease cleaves GFP; endogenous in cells; host or cells: U2OS cells transduced with a BacMam reporter
Sequence (P09958 108-794): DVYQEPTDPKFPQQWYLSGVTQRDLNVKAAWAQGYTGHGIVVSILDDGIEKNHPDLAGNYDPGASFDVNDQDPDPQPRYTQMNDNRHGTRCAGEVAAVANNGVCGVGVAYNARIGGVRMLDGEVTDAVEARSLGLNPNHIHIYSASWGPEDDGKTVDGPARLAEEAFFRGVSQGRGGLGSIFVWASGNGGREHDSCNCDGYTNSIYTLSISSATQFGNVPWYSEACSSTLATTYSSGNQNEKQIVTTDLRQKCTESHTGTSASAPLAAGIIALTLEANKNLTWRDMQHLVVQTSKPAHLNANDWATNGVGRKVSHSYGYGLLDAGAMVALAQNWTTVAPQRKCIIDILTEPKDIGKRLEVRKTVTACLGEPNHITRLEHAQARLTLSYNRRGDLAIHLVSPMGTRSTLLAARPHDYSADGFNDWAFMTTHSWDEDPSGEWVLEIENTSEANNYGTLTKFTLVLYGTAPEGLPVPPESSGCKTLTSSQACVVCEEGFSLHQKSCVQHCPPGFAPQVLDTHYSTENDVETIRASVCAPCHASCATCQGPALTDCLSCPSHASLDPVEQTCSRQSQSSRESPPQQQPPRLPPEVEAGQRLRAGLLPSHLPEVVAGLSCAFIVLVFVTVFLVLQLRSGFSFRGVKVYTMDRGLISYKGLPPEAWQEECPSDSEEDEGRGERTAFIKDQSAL
assay-notes: Furin cell-based assay (image-based, Golgi-targeted GFP with BMP10 furin/PCSK cleavage site);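 note: Read-out is mean GFP fluorescence of Golgi puncta per cell by high-content imaging, retained when furin inhibited, over an eleven-point 0.00017–10 µM series, four-parameter fit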
applied-conditions: 24-hour incubation, read-out: furin golgi cell pXC50 (converted)
Cut-off 30 nM on EC50: below means YES, at or above means NO.

For orientation, consider the following solved cases.
[
  {
    "compound": "COC(=O)NCC1CCN(Cc2cc(Oc3cnc(N4CCN(C[C@@H](C)O)CC4)nc3)nc(-c3cc(Cl)cc(Cl)c3)c2)CC1",
    "system": "furin (endogenous protease) in U20S cells (Homo sapiens, UniProt P09958)",
    "label": "YES"
  },
  {
    "compound": "CN1CCCN(c2ccc(Oc3cc(CN4CCC(CC(=O)O)CC4)cc(-c4cc(Cl)cc(Cl)c4)n3)nn2)CC1",
    "system": "furin (endogenous protease) in U20S cells (Homo sapiens, UniProt P09958)",
    "label": "NO"
  },
  {
    "compound": "CC(CCN1CCN(c2cnc(Oc3cc(CN4CCC(CCO)CC4)cc(-c4cc(Cl)cc(Cl)c4)n3)cn2)CC1)C(=O)O (centres unmarked)",
    "system": "furin (endogenous protease) in U20S cells (Homo sapiens, UniProt P09958)",
    "label": "YES"
  },
  {
    "compound": "CS(=O)(=O)CCC1CCN(Cc2cc(Oc3ccc(N4CCN(CCC(=O)O)CC4)nc3)nc(-c3cc(Cl)cc(Cl)c3)c2)CC1",
    "system": "furin (endogenous protease) in U20S cells (Homo sapiens, UniProt P09958)",
    "label": "NO"
  },
  {
    "compound": "CC(=O)NCC1CCN(Cc2cc(Oc3cnc(N4CCNCC4)nc3)nc(-c3cc(Cl)cc(Cl)c3)c2)CC1",
    "system": "furin (endogenous protease) in U20S cells (Homo sapiens, UniProt P09958)",
    "label": "YES"
  }
]

Please indicate whether the reported EC50 of CC(=O)NCC1CCN(Cc2cc(-c3cc(Cl)cc(Cl)c3)nc(Oc3ccc(N4CCNCC4)nc3)n2)CC1 is strictly below 30 nM. YES

Please indicate whether the reported EC50 of CN1CCCN(c2ccc(Oc3cc(CN4CC[C@@H]5[C@H](CC4)[C@H]5C(=O)O)cc(-c4cc(Cl)cc(Cl)c4)n3)nn2)CC1 is strictly below 30 nM. YES

Please indicate whether the reported EC50 of CN1CCN(c2ccc(Oc3cc(CN4CCC(CCO)CC4)cc(-c4cc(Cl)cc(Cl)c4)n3)nn2)CC1 is strictly below 30 nM. YES

Please indicate whether the reported EC50 of CC(=O)NCC1CCN(Cc2cc(Oc3cnc(N4CCN(CCCO)CC4)nc3)cc(-c3cc(Cl)cc(Cl)c3)c2)CC1 is strictly below 30 nM. YES

Please indicate whether the reported EC50 of CCOC(=O)NCC1CCN(Cc2cc(Oc3cnc(N4CCN(CCC(=O)O)CC4)nc3)nc(-c3cc(Cl)cc(Cl)c3)c2)CC1 is strictly below 30 nM. NO

Please indicate whether the reported EC50 of CCNC(=O)CC1CCN(Cc2cc(Oc3ccc(N4CCN(CCCS(C)(=O)=O)CC4)nc3)nc(-c3cc(Cl)cc(Cl)c3)c2)CC1 is strictly below 30 nM. YES

Please indicate whether the reported EC50 of CC(=O)NCC1CCN(Cc2cc(Oc3ccc(N4CCN(CCS(N)(=O)=O)CC4)nc3)nc(-c3cc(Cl)cc(Cl)c3)c2)CC1 is strictly below 30 nM. YES

Please indicate whether the reported EC50 of NC(=O)OCCN1CCN(Cc2cc(Oc3ccc(N4CCN(CCC(=O)O)CC4)nc3)nc(-c3cc(Cl)cc(Cl)c3)c2)CC1 is strictly below 30 nM. NO

Please indicate whether the reported EC50 of CN1CCN(c2cnc(Oc3cc(CN4CCC(CC(=O)O)CC4)cc(-c4cc(Cl)cc(Cl)c4)n3)cn2)CC1 is strictly below 30 nM. NO

---

system: Furin (108-574-Tev-Flag-His) enzyme (Homo sapiens, UniProt P09958)
Construct: Furin (108-574-Tev-Flag-His) enzyme was expressed and purified from CHO cells; TEV cleavage site (C); FLAG (C); His (C); made in house; host or cells: CHO cells
assay-notes: Furin enzyme assay
Format: biochemical
outcome-measure: furin enzyme pIC50
Hey, just send me the number, nothing else.

Example cases with answers are listed next.
[
  {
    "compound": "COC(=O)NCC1CCN(Cc2cc(Oc3ccc(N4CCN(C)CC4)nc3)nc(-c3cc(Cl)cc(Cl)c3)c2)CC1 [Example 65]",
    "data-value": 8.7
  },
  {
    "compound": "C[C@]1(O)C[C@H](N2CCN(c3ncc(Oc4cc(CN5CCC(CC(=O)O)CC5)cc(-c5cc(Cl)cc(Cl)c5)n4)cn3)CC2)C1 [Example 25]",
    "data-value": 8.2
  },
  {
    "compound": "Cc1nc(N2CCN(C)CC2)ccc1Oc1nc(-c2cc(Cl)cc(Cl)c2)cc(CN2CCC(CC(=O)O)CC2)c1F [Example 383]",
    "data-value": 8.4
  },
  {
    "compound": "CC(=O)NCC1CCN(Cc2cc(Oc3cnc(N4CCN(CC(C)(C)O)CC4)nc3)nc(-c3cc(Cl)cc(Cl)c3)c2)CC1 [Example 303]",
    "data-value": 9.2
  },
  {
    "compound": "CN1CCCN(c2ccc(Oc3cc(CN4CCC(CC(=O)O)CC4)cc(-c4cc(Cl)cc(Cl)c4)n3)nn2)CC1 [Example 356]",
    "data-value": 8.6
  }
]

What does the data say about its furin enzyme pIC50? Entry: CC(=O)NCC1CCN(Cc2cc(Oc3ccc(N4CCN(CCS(N)(=O)=O)CC4)nc3)nc(-c3cc(Cl)cc(Cl)c3)c2)CC1 [Example 289] 8.6

What does the data say about its furin enzyme pIC50? Entry: O=C(O)CC1CCN(Cc2cc(Oc3cnc(N4CCN(CC(O)CO)CC4)nc3)nc(-c3cc(Cl)cc(Cl)c3)c2)CC1 (stereo not shown) [Example 177] 9.2

---

system: Furin (108-574-Tev-Flag-His) enzyme (Homo sapiens)
Construct: Furin (108-574-Tev-Flag-His) enzyme was expressed and purified from CHO cells; TEV cleavage site (C); FLAG (C); His (C); made in house; host or cells: CHO cells
assay-notes: Furin enzyme assay
Format: biochemical
Reported furin enzyme pIC50 values follow for various compounds
Hey, just send me the number, nothing else.

Example cases with answers are listed next.
[
  {
    "compound": "CC(=O)NCC1CCN(Cc2cc(Oc3cnc(N4CCCNCC4)nc3)nc(-c3cc(Cl)cc(Cl)c3)c2)CC1 [Example 118]",
    "system": "Furin (108-574-Tev-Flag-His) enzyme (Homo sapiens)",
    "furin enzyme pIC50": 8.7
  },
  {
    "compound": "CC(=O)NCC1CCN(Cc2cc(Oc3ccc(N4CCN(C(=O)CCC(=O)O)CC4)nc3)nc(-c3cc(Cl)cc(Cl)c3)c2)CC1 [Example 33]",
    "system": "Furin (108-574-Tev-Flag-His) enzyme (Homo sapiens)",
    "furin enzyme pIC50": 8.5
  },
  {
    "compound": "O=C(O)CCC1CCN(Cc2cc(Oc3ccc(N4CCN(CCO)CC4)nc3)nc(-c3cc(Cl)cc(Cl)c3)c2)CC1 [Example 314]",
    "system": "Furin (108-574-Tev-Flag-His) enzyme (Homo sapiens)",
    "furin enzyme pIC50": 8.9
  },
  {
    "compound": "COC(=O)NCC1CCN(Cc2cc(Oc3cnc(N4CCN5CCC4C5)nc3)nc(-c3cc(Cl)cc(Cl)c3)c2)CC1 (stereo not shown) [Example 336]",
    "system": "Furin (108-574-Tev-Flag-His) enzyme (Homo sapiens)",
    "furin enzyme pIC50": 9.1
  },
  {
    "compound": "CN1CCCN(c2ncc(Oc3cc(CN4CCC(CB(O)O)CC4)cc(-c4cc(Cl)cc(Cl)c4)n3)cn2)CC1 [Example 322]",
    "system": "Furin (108-574-Tev-Flag-His) enzyme (Homo sapiens)",
    "furin enzyme pIC50": 8.9
  },
  {
    "compound": "CCC(CCN1CCN(c2ccc(Oc3cc(CN4CCC(CNC(C)=O)CC4)cc(-c4cc(Cl)cc(Cl)c4)n3)cn2)CC1)C(=O)O (stereo not shown) [Example 188]",
    "system": "Furin (108-574-Tev-Flag-His) enzyme (Homo sapiens)",
    "furin enzyme pIC50": 8.8
  }
]

Now for the compound whose furin enzyme pIC50 we want.
What does the data say about its furin enzyme pIC50? Entry: NS(=O)(=O)CCCN1CCN(c2ncc(Oc3cc(CN4CCC(CC(=O)O)CC4)cc(-c4cc(Cl)cc(Cl)c4)n3)cn2)CC1 [Example 246] 8.9
